# pIC50 listing for each entry below
Target: Neuronal acetylcholine receptor subunit alpha-7 (Homo sapiens)
Sequence (P36544 whole entry): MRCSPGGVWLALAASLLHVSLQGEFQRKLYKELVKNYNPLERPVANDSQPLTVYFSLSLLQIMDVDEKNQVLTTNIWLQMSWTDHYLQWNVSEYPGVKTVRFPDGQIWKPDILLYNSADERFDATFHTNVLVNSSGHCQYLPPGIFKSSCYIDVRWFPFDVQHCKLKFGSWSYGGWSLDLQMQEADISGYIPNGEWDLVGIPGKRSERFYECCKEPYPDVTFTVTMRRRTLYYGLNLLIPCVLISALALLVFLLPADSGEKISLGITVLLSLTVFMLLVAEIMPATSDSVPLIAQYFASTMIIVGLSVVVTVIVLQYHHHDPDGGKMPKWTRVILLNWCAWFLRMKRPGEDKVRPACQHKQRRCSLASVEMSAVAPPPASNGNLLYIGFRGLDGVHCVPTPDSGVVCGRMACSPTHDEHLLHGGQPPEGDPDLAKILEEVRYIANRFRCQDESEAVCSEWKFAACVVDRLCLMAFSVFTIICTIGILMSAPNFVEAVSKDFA
Experiment: Antagonist activity at human alpha7 nAChR expressed in Xenopus laevis oocytes assessed as inhibition of Ach-induced response at -70 mV holding potential measured after 5 mins by two electrode voltage-clamp electrophysiology method
pIC50: −log10 of the molar value. Peptide text beside a SMILES is read from it.

{"columns": ["compound", "relation-symbol", "pIC50"],
 "data": [
  ["CC[C@H](C)[C@H](NC(=O)[C@H](CCC(=O)O)NC(=O)[C@@H]1CCCN1C(=O)[C@H](Cc1c[nH]cn1)NC(=O)[C@H](CC(=O)O)NC(=O)[C@@H](NC(=O)[C@H](CC(N)=O)NC(=O)[C@H](CS)NC(=O)[C@H](C)NC(=O)[C@@H]1CCCN1C(=O)[C@H](Cc1c[nH]cn1)NC(=O)[C@H](CO)NC(=O)[C@H](CS)NC(=O)[C@H](CS)NC(=O)CN)C(C)C)C(=O)N[C@@H](CS)C(=O)O", "<", 5.00],
  ["C[C@H](NC(=O)[C@H](CCCNC(=N)N)NC(=O)[C@H](CO)NC(=O)[C@@H]1CCCN1C(=O)[C@H](CO)NC(=O)[C@H](CS)NC(=O)[C@H](C)NC(=O)[C@@H]1CCCN1C(=O)[C@H](Cc1c[nH]cn1)NC(=O)[C@H](CO)NC(=O)[C@H](CS)NC(=O)[C@H](CS)NC(=O)CN)C(=O)N[C@@H](CO)C(=O)N[C@@H](CO)C(=O)N[C@@H](CS)C(=O)O (H-GCCSHPACSPSRASSC-OH)", "<", 5.00],
  ["C[C@H](NC(=O)[C@H](CCCNC(=N)N)NC(=O)[C@H](CO)NC(=O)[C@H](CCCNC(=N)N)NC(=O)[C@H](CO)NC(=O)[C@H](CS)NC(=O)[C@H](C)NC(=O)[C@@H]1CCCN1C(=O)[C@H](Cc1c[nH]cn1)NC(=O)[C@H](CO)NC(=O)[C@H](CS)NC(=O)[C@H](CS)NC(=O)CN)C(=O)N[C@@H](CO)C(=O)N[C@@H](CO)C(=O)N[C@@H](CS)C(=O)O (H-GCCSHPACSRSRASSC-OH)", "=", 5.27],
  ["C[C@H](NC(=O)[C@H](CCCNC(=N)N)NC(=O)[C@H](CCCNC(=N)N)NC(=O)[C@H](Cc1c[nH]cn1)NC(=O)[C@H](CO)NC(=O)[C@H](CCCCN)NC(=O)[C@H](CS)NC(=O)[C@H](C)NC(=O)[C@@H]1CCCN1C(=O)[C@H](Cc1c[nH]cn1)NC(=O)[C@H](CO)NC(=O)[C@H](CS)NC(=O)[C@H](CS)NC(=O)CN)C(=O)N[C@@H](CCCNC(=N)N)C(=O)N[C@@H](CS)C(=O)O (H-GCCSHPACKSHRRARC-OH)", "=", 5.72],
  ["C[C@H](NC(=O)[C@H](CCCNC(=N)N)NC(=O)[C@H](CCCNC(=N)N)NC(=O)[C@H](CCCNC(=N)N)NC(=O)[C@H](CO)NC(=O)[C@H](CS)NC(=O)[C@H](C)NC(=O)[C@@H]1CCCN1C(=O)[C@H](Cc1c[nH]cn1)NC(=O)[C@H](CO)NC(=O)[C@H](CS)NC(=O)[C@H](CS)NC(=O)CN)C(=O)N[C@@H](CCCNC(=N)N)C(=O)N[C@@H](CO)C(=O)N[C@@H](CS)C(=O)O (H-GCCSHPACSRRRARSC-OH)", "=", 6.75],
  ["C[C@H](NC(=O)[C@H](CCCNC(=N)N)NC(=O)[C@H](CCCNC(=N)N)NC(=O)[C@@H]1CCCN1C(=O)[C@H](CO)NC(=O)[C@H](CS)NC(=O)[C@H](C)NC(=O)[C@@H]1CCCN1C(=O)[C@H](Cc1c[nH]cn1)NC(=O)[C@H](CO)NC(=O)[C@H](CS)NC(=O)[C@H](CS)NC(=O)CN)C(=O)N[C@@H](CCCNC(=N)N)C(=O)N[C@@H](CO)C(=O)N[C@@H](CS)C(=O)O (H-GCCSHPACSPRRARSC-OH)", "=", 5.67],
  ["C[C@H](NC(=O)[C@H](CCCNC(=N)N)NC(=O)[C@H](CCCNC(=N)N)NC(=O)[C@H](Cc1c[nH]cn1)NC(=O)[C@H](CO)NC(=O)[C@H](CS)NC(=O)[C@H](C)NC(=O)[C@@H]1CCCN1C(=O)[C@H](Cc1c[nH]cn1)NC(=O)[C@H](CO)NC(=O)[C@H](CS)NC(=O)[C@H](CS)NC(=O)CN)C(=O)N[C@@H](CCCNC(=N)N)C(=O)N[C@@H](CO)C(=O)N[C@@H](CS)C(=O)O (H-GCCSHPACSHRRARSC-OH)", "=", 5.00]
]}
